measurement.target: Phosphatidylinositol 4,5-bisphosphate 3-kinase catalytic subunit gamma isoform (Homo sapiens, UniProt P48736)
Sequence (P48736 whole entry, canonical isoform): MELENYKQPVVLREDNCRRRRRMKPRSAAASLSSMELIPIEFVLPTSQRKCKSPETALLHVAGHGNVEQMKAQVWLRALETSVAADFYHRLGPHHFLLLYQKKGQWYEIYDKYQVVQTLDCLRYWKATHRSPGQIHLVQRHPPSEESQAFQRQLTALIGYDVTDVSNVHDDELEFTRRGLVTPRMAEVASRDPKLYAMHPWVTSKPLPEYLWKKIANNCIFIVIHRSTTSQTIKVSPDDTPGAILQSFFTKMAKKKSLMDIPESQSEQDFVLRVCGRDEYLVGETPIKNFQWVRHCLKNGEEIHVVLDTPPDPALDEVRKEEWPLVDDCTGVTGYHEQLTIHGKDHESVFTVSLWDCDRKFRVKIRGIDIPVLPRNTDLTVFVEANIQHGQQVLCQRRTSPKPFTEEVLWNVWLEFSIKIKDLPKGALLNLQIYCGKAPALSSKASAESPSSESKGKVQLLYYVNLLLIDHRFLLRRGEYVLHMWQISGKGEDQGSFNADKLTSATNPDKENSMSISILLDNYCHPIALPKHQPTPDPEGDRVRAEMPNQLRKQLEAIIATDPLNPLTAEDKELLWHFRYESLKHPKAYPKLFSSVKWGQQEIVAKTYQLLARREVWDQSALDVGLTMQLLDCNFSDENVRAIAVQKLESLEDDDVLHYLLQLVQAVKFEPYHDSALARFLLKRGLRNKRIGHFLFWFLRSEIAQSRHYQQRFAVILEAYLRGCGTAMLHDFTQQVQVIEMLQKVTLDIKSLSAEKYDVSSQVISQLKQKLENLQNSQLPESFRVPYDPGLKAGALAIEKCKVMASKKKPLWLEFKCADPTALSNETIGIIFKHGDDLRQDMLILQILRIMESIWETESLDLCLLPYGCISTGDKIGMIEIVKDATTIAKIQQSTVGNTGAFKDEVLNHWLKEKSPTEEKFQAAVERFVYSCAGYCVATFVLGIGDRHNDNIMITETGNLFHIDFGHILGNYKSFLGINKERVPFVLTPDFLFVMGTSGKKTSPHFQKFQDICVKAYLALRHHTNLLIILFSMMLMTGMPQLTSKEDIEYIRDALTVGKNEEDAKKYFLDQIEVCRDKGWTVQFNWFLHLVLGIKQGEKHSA
protocol.notes: Inhibition of PI3Kgamma (unknown origin) using PIP2 as substrate preincubated for 1 hr followed by substrate addition and measured after 60 mins in presence of ATP by ADP-glo assay
IC50 strictly under 2 nM means 1.0; at 2 nM or over means 0.0.

Consider the following illustrative entries.
>>> print(df.to_string())
                               query_smiles  class_label
0  Cc1cc(-c2ccn3nc(N)c(C(=O)N[C@H]4CCOC4)c3n2)cc2c1C(=O)N([C@@H](C)C1CC1)C2          1.0
1  CCN1Cc2cc(-c3ccn4nc(N)c(C(=O)NC5CC5)c4n3)cc(C)c2C1=O          0.0
2  Cc1cc(-c2ccn3nc(N)c(C(=O)NC4CC4)c3n2)cc2c1C(=O)N([C@@H](C1CC1)C(F)(F)F)C2          0.0
3  CNS(=O)(=O)c1cc(-c2ccn3nc(N)c(C(=O)N[C@H]4CC[C@](C)(O)CC4)c3n2)cc2c1C(=O)N([C@@H](C)C(F)(F)F)C2          1.0
4  CS(=O)(=O)Nc1cc(-c2ccn3nc(N)c(C(=O)NC4CC4)c3n2)cc2c1C(=O)N([C@@H](C1CC1)C(F)(F)F)C2          1.0

is_below(IC50, 2 nM) for `C[C@@H](C1CC1)N1Cc2cc(-c3ccn4nc(N)c(C(=O)N[C@@H](CO)C5CC5)c4n3)cc(NS(C)(=O)=O)c2C1=O` ?
1.0

What do you have for `CC(C)c1cc(-c2ccn3nc(N)c(C(=O)NC4CC4)c3n2)cc2c1C(=O)N([C@@H](C)C1CC1)C2` ?
0.0

What do you have for `C[C@@H](C1CC1)N1Cc2cc(-c3ccn4nc(N)c(C(=O)NC5CC5)c4n3)cc(C3CC3)c2C1=O` ?
0.0

What do you have for `CNS(=O)(=O)c1cc(-c2ccn3nc(N)c(C(=O)N[C@@H](CO)C4CC4)c3n2)cc2c1C(=O)N([C@@H](C)C(F)(F)F)C2` ?
1.0

What do you have for `Cc1cc(-c2ccn3nc(N)c(C(=O)N[C@H]4CC[C@H](O)CC4)c3n2)cc2c1C(=O)N([C@@H](C)C1CC1)C2` ?
1.0

What do you have for `C[C@@H](C1CC1)N1Cc2cc(-c3ccn4nc(N)c(C(=O)NC5CC5)c4n3)cc(OC(F)F)c2C1=O` ?
1.0

What do you have for `Cc1cc(-c2ccn3nc(N)c(C(=O)NC4CC4)c3n2)cc2c1C(=O)N([C@@H](C)C1CC1)C2` ?
0.0

What do you have for `C[C@H](N1Cc2cc(-c3ccn4nc(N)c(C(=O)N[C@@H](CO)C5CC5)c4n3)cc(Cl)c2C1=O)C(F)(F)F` ?
0.0

---

Listed below: CLH values for each entry.
protocol.notes: Hepatic clearance in Sprague-Dawley rat by LC-MS/MS analysis
Format: ADME
measurement.conditions: in vivo

>>> print(df.to_string())
                               query_smiles    assay_result
0  CC(C)S(=O)(=O)c1cc(-c2ccn3nc(N)c(C(=O)NC4CC4)c3n2)cc2c1C(=O)N([C@@H](C)C1CC1)C2  28.3 mL/min/kg

Given the compound `C[C@@H](C1CC1)N1Cc2cc(-c3ccn4nc(N)c(C(=O)N[C@H]5CC[C@@](C)(O)CC5)c4n3)cc(OC(F)F)c2C1=O` , what is its reported CLH?
25 mL/min/kg

What do you have for `C[C@@H](C1CC1)N1Cc2cc(-c3ccn4nc(N)c(C(=O)N[C@H]5CC[C@](O)(C(F)(F)F)CC5)c4n3)cc(NS(C)(=O)=O)c2C1=O` ?
23.3 mL/min/kg

What do you have for `Cc1cc(-c2ccn3nc(N)c(C(=O)N[C@H]4CC[C@@](C)(O)CC4)c3n2)cc2c1C(=O)N([C@@H](C)C1CC1)C2` ?
33 mL/min/kg
